Target: TBK-1 (Homo sapiens (Human), UniProt Q9UHD2)
Sequence (Q9UHD2 whole entry): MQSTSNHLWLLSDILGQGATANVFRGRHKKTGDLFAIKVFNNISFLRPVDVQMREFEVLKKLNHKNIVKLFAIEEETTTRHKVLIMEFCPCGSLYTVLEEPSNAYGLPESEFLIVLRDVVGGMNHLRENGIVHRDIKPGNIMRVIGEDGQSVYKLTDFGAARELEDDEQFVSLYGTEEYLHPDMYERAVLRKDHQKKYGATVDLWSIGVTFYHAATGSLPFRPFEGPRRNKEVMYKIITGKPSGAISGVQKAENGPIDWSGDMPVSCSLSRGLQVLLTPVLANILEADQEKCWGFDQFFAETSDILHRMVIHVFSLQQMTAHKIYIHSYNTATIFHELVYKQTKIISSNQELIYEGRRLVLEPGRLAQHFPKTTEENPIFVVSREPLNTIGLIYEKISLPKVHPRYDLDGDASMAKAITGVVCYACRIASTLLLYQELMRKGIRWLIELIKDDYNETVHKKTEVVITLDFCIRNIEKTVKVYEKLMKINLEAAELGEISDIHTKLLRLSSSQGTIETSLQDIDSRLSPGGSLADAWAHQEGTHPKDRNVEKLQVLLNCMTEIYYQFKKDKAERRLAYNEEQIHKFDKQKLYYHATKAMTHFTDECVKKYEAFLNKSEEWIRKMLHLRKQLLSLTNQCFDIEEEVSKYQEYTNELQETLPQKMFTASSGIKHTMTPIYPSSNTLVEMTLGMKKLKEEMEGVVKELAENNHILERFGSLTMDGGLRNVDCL
Assay: biochemical
Conditions: 20 μM ATP (apparent Km), 8 nM kinase, 2.5 hr; values are activity bands; read-out: Inhibition of TBK-1 IC50
# IC50 per entry

Past entries and their recorded results:
>  <compound>
COC[C@H]1CCCN1c1ccc(-c2ccnc(Nc3ccc(NC(C)=O)nc3)n2)cc1C#N [DMX-71]

>  <assay_value>
< 30 nM

$$$$
>  <compound>
Cn1nccc1Nc1nccc(-c2ccc(N3CC[C@H](O)C3)c(C#N)c2)n1 [DMX-52]

>  <assay_value>
30 to 300 nM

$$$$
>  <compound>
CN1CCC(Nc2ccc(Nc3nccc(-c4ccc(N5CC[C@@H](F)C5)c(C#N)c4)n3)cn2)CC1 [DMX-77]

>  <assay_value>
< 30 nM

$$$$

Next up:
For record N#Cc1cc(-c2ccnc(Nc3ccc4c(c3)NC(=O)CC4)n2)ccc1N1CCCC1 [DMX-17] the listed IC50 is < 30 nM

----------
Molecular target: IKKε (Homo sapiens (Human), UniProt Q14164)
Sequence (Q14164 whole entry): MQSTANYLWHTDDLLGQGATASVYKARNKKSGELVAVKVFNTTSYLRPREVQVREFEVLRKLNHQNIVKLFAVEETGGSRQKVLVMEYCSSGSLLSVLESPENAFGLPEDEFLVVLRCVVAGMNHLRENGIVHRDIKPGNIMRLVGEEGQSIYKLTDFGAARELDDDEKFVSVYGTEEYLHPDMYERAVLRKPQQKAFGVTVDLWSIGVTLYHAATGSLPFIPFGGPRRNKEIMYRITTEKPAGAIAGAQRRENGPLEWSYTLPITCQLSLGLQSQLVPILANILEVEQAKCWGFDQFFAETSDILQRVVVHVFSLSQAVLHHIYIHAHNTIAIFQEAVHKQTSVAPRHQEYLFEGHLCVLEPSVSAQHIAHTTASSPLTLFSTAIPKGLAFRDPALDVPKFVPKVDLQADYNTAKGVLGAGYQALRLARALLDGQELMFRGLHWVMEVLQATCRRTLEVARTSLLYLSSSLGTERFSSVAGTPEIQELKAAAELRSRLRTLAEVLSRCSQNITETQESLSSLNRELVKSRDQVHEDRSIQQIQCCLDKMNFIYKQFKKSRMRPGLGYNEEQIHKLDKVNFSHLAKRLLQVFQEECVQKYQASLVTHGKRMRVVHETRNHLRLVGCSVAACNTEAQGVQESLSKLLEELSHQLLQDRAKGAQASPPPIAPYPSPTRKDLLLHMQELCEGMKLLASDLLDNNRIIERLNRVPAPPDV
Experiment: IKKε time-resolved fluorescence Lanthascreen kinase inhibition assay
Assay type: biochemical
Details: 20 μM ATP (apparent Km), 2 nM kinase, 1 hr; values are activity bands; read-out: Inhibition of IKKε IC50
quantity_kind: IC50

Tested on IKKε (Homo sapiens (Human), UniProt Q14164), the item `N#Cc1cc(-c2ccnc(Nc3ccc(N4CCOCC4)nc3)n2)ccc1N1CCCC1` showed IC50 equal to < 30 nM

Lab note: compound `N#Cc1cc(-c2ccnc(Nc3ccccc3)n2)ccc1N1CCCC1` tested on IKKε (Homo sapiens (Human), UniProt Q14164); recorded IC50 was 300 to 9000 nM

Param item: `CNC(=O)C1CCN(c2ccc(-c3ccnc(Nc4ccc(NC(C)=O)nc4)n3)cc2C#N)CC1` ; param system: IKKε (Homo sapiens (Human), UniProt Q14164); output IC50: 30 to 300 nM

Measured IC50 for this entry `CN1CCN(c2ccc(Nc3nccc(-c4ccc(N5CC[C@H](O)C5)c(C#N)c4)n3)cn2)CC1` on IKKε (Homo sapiens (Human), UniProt Q14164): < 30 nM

Observed IC50, IKKε (Homo sapiens (Human), UniProt Q14164), `N#Cc1cc(-c2ccnc(Nc3ncc(C(N)=O)o3)n2)ccc1N1CCCC1` : 300 to 9000 nM

----------
Measured pIC50 values are reported for all entries that follow.
Molecular target: UniProt:P45983
Sequence (P45983 whole entry): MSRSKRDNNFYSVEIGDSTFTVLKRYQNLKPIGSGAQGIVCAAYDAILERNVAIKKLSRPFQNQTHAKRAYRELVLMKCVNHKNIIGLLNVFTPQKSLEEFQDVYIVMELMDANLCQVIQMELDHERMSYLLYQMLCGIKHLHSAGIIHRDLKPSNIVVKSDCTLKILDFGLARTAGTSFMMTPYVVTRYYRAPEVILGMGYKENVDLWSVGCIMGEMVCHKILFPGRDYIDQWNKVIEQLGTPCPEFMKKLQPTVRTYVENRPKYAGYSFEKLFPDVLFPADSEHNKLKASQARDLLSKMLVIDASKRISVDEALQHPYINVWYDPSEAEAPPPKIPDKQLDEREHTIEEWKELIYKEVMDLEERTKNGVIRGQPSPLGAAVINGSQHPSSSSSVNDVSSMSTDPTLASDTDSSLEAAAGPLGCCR
Assay: Jnk1 radiolabelled P33 ATP assay (Kinase Hotspot Technology)
Type: biochemical
Details: at the Km for ATP; read-out: Concentration of compounds required for ~ 50% inhibition, Jnk-1
Interpret pIC50 as the negative base-10 log of the concentration measured in mol/L.

Form field, pIC50 with UniProt:P45983, item `N#Cc1cc(-c2ccnc(Nc3cccc(C(N)=O)c3)n2)ccc1N1CCCC1` : 6.60

pIC50 on UniProt:P45983 for `N#Cc1cc(-c2ccnc(Nc3ccc(C(N)=O)cc3)n2)ccc1N1CCCC1` is 6.45

Summary: `N#Cc1cc(-c2ccnc(Nc3ccc4c(c3)CC(=O)N4)n2)ccc1N1CCCC1` , UniProt:P45983, pIC50 = 6.70

// returns pIC50 for `N#Cc1cc(-c2ccnc(Nc3ccc(N4CCOCC4)nc3)n2)ccc1N1CCCC1` with UniProt:P45983; value = 6.65

Form field, pIC50 with UniProt:P45983, item `CC(=O)Nc1ccc(Nc2nccc(-c3ccc(N4CCCC4)c(C#N)c3)n2)cc1` : 6.58

----------
Biological target: IKKβ (Homo sapiens (Human))
Test: IKKβ radiolabelled P33 ATP assay (Kinase Hotspot Technology)
Format: biochemical
Conditions: single point, 10 μM ATP; read-out: Concentration of compounds required for ~ 50% inhibition, IKK-β
Experimental: The compounds of examples DMX-1,8,9,14 and 16 were tested for activity against TBK1, IKKβ, Jnk1 and Jnk3 in addition to IKK-ε and TBK-1. TBK-1, IKKβ, Jnk1 and Jnk3 were screened using radiolabelled P^33 ATP using the Kinase Hotspot Technology of Reaction Biology Corp. Screening against Jnk-1 and Jnk-3 was carried out at the Km for ATP. IKK-ε and TBK-1 screening was also carried out as described above at the Km for ATP for these enzymes. […]
quantity_kind: pIC50
pIC50 here: minus log base 10 of the concentration, concentration in moles per litre.

Worked cases, pIC50 given:
>  <entry_smiles>
CN(C)CCNc1ccc(Nc2nccc(-c3ccc(N4CC[C@H](F)C4)c(C#N)c3)n2)cn1

>  <quantity_kind>
pIC50

>  <assay_value>
6.00

$$$$
>  <entry_smiles>
CC(=O)Nc1ccc(Nc2nccc(-c3ccc(N4CC(O)C4)c(C#N)c3)n2)cn1

>  <quantity_kind>
pIC50

>  <assay_value>
6.00

$$$$

Now consider a different molecule.
I looked up `Cn1cc(Nc2nccc(-c3ccc(N4CCCC4)c(C#N)c3)n2)cn1` and its pIC50 for IKKβ (Homo sapiens (Human)) was 6.00

----------
Reported pIC50 by item:
Biological target: Jnk3 (Homo sapiens (Human))
Sequence (P53779 whole entry): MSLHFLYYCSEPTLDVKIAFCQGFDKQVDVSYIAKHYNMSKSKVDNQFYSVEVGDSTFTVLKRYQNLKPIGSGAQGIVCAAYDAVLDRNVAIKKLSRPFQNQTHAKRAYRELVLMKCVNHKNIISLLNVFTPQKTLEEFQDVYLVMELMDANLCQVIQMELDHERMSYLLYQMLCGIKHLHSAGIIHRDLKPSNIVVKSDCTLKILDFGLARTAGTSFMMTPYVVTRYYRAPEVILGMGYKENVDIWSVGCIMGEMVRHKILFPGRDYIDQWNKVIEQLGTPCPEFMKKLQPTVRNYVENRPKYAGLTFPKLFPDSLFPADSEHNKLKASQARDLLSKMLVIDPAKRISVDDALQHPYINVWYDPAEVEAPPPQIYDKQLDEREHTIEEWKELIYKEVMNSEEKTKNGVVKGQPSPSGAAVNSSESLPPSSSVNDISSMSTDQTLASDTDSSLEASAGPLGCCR
pIC50: −log10 of the molar value.

>  <entry_smiles>
N#Cc1cc(-c2ccnc(Nc3ccc(N4CCOCC4)nc3)n2)ccc1N1CCCC1

>  <assay_value>
< 5.00

$$$$
>  <entry_smiles>
N#Cc1cc(-c2ccnc(Nc3cccc(C(N)=O)c3)n2)ccc1N1CCCC1

>  <assay_value>
< 5.00

$$$$
>  <entry_smiles>
CC(=O)Nc1ccc(Nc2nccc(-c3ccc(N4CCCC4)c(C#N)c3)n2)cc1

>  <assay_value>
5.00

$$$$

Field pIC50 (entry `N#Cc1cc(-c2ccnc(Nc3ccc(C(N)=O)cc3)n2)ccc1N1CCCC1` ) reads < 5.00

Measured pIC50, `N#Cc1cc(-c2ccnc(Nc3ccc4c(c3)CC(=O)N4)n2)ccc1N1CCCC1` : < 5.00

----------
Biological target: IKKβ (Homo sapiens (Human), UniProt O14920)
Sequence (O14920 whole entry): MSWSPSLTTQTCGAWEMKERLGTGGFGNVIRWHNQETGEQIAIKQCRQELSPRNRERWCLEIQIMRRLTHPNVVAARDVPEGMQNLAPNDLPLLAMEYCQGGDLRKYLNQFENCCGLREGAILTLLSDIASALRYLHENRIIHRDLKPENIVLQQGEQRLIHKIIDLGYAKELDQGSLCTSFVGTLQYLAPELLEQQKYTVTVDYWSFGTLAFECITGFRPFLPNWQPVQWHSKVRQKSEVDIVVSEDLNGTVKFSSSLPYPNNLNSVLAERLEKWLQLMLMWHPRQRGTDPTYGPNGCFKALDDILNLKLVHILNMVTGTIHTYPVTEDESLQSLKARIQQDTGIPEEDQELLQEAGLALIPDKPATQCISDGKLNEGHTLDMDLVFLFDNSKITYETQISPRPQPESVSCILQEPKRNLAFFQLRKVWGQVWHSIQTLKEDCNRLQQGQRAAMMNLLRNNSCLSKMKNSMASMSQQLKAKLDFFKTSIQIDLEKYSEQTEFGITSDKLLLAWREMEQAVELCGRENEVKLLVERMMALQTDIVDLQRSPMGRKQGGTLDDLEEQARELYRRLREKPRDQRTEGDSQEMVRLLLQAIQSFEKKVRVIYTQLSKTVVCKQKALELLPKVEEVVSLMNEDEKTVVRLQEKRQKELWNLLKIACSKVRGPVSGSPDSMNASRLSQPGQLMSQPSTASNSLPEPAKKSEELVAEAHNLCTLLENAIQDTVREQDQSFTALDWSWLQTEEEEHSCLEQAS
Experiment: IKKβ radiolabelled P33 ATP assay (Kinase Hotspot Technology)
Assay type: biochemical
Details: single point at the concentration (1000 nM), 1 μM ATP; read-out: IKK-β percentage inhibition (in brackets)
quantity_kind: inhibition at 1 µM (%)
Answer in %, number only, no unit symbol.

Reference set (3 entries):
>  <compound>
N#Cc1cc(-c2ccnc(Nc3ccc(C(N)=O)cc3)n2)ccc1N1CCCC1 [DMX-8]

>  <study_target>
IKKβ (Homo sapiens (Human), UniProt O14920)

>  <assay_value>
50

$$$$
>  <compound>
N#Cc1cc(-c2ccnc(Nc3ccc4c(c3)CC(=O)N4)n2)ccc1N1CCCC1 [DMX-14]

>  <study_target>
IKKβ (Homo sapiens (Human), UniProt O14920)

>  <assay_value>
45

$$$$
>  <compound>
N#Cc1cc(-c2ccnc(Nc3ccc(N4CCOCC4)nc3)n2)ccc1N1CCCC1 [DMX-16]

>  <study_target>
IKKβ (Homo sapiens (Human), UniProt O14920)

>  <assay_value>
43

$$$$

Now for the compound whose inhibition at 1 µM we want.
Simply: CC(=O)Nc1ccc(Nc2nccc(-c3ccc(N4CCCC4)c(C#N)c3)n2)cc1 [DMX-9] , IKKβ (Homo sapiens (Human), UniProt O14920), inhibition at 1 µM = 34

----------
Target: IKKε (Homo sapiens (Human))
Test: IKKε time-resolved fluorescence Lanthascreen kinase inhibition assay
Format: biochemical
Details: 20 μM ATP (apparent Km), 2 nM kinase, 1 hr; values are activity bands; read-out: Inhibition of IKKε IC50
pIC50: −log10 of the molar value.
Recorded pIC50 for the following compounds

Worked examples, 2 compounds total:
>  <compound>
N#Cc1cc(-c2ccnc(Nc3ccn(CC(N)=O)n3)n2)ccc1N1CCCC1 [DMX-59]

>  <quantity_kind>
pIC50

>  <assay_value>
6.52 to 7.52

$$$$
>  <compound>
N#Cc1cc(-c2ccnc(Nc3ccc(F)cc3)n2)ccc1N1CCCC1 [DMX-4]

>  <quantity_kind>
pIC50

>  <assay_value>
6.52 to 7.52

$$$$

// recorded pIC50 for CC(=O)Nc1cccc(Nc2nccc(-c3ccc(N4CCCC4)c(C#N)c3)n2)c1 [DMX-7] : > 7.52

The reported value for C[C@H]1CCCN1c1ccc(-c2ccnc(Nc3ccc(NCCN(C)C)nc3)n2)cc1C#N [DMX-63] in terms of pIC50 is > 7.52

Looking up N#Cc1cc(-c2ccnc(Nc3cccc(NC(=O)N4CCCC4)c3)n2)ccc1N1CCCC1 [DMX-22] , I found its pIC50 recorded as > 7.52

Entry CN1CCC(Nc2ccc(Nc3nccc(-c4ccc(N5CC[C@H](F)C5)c(C#N)c4)n3)cn2)CC1 [DMX-78] , pIC50 reported as > 7.52

Item: CO[C@H]1CCN(c2ccc(-c3ccnc(Nc4ccc(NC(C)=O)nc4)n3)cc2C#N)C1 [DMX-76] | pIC50: > 7.52

Measured pIC50, CC(=O)Nc1ccc(Nc2nccc(-c3ccc(N4CCCC4)c(C#N)c3)n2)cn1 [DMX-15] : > 7.52

Per the record, N#Cc1cc(-c2ccnc(Nc3cccc(C(F)(F)F)c3)n2)ccc1N1CCCC1 [DMX-2] has pIC50 of 5.05 to 6.52

Lookup result for CN1CCN(C(=O)c2cccc(Nc3nccc(-c4ccc(N5CCCC5)c(C#N)c4)n3)c2)CC1 [DMX-43] ; measured pIC50: > 7.52

Entry CC(=O)N(C)c1ccc(Nc2nccc(-c3ccc(N4CCCC4)c(C#N)c3)n2)cc1 [DMX-37] ; pIC50 = > 7.52
